# experimental_target: T1, Human CD3eg linker (human)
# T1 construct: Single chain: epsilon and gamma subunits of human CD3 joined by a 29-mer linker, Flag-tag at the C-terminus; also called recombinant human CD3
# T1 chain: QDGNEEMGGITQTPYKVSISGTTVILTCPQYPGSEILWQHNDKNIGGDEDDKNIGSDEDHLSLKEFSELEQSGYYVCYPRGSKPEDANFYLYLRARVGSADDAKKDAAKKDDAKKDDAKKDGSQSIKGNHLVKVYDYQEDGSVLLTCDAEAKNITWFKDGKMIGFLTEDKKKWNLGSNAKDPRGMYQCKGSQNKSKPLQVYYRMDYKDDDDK
# protocol_summary: Biacore SPR, vs template H183/L072
experimental_readout: fold change of affinity (fold)
The response must be a number in fold with no trailing unit.

* H183/L072 VH G52cM (antibody, name in Kabat numbering, V domains shown) VH: QVQLVESGGGLVQPGRSLRLSCAASGFTFSNAWMHWVRQAPGKGLEWVAQIKDKMNAYAAYYAPSVKGRFTISRDDSKNSIYLQMNSLKTEDTAVYYCHYVHYASASTVLPAFGVDAWGQGTTVTVSS VL: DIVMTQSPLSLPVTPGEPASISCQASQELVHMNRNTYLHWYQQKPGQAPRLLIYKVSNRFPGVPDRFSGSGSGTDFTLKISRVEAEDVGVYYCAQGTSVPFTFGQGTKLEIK | 1.4
* H183/L072 VH F27G (antibody, name in Kabat numbering, V domains shown) VH: QVQLVESGGGLVQPGRSLRLSCAASGGTFSNAWMHWVRQAPGKGLEWVAQIKDKGNAYAAYYAPSVKGRFTISRDDSKNSIYLQMNSLKTEDTAVYYCHYVHYASASTVLPAFGVDAWGQGTTVTVSS VL: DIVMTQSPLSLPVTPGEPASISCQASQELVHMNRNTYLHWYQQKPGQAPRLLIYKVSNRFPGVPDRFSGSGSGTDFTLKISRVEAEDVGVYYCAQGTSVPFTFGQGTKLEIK | 0.5

Lab note: next binder to report on.
Task item: # input binder: H183/L072 VH D52aP (antibody, name in Kabat numbering, V domains shown) VH: QVQLVESGGGLVQPGRSLRLSCAASGFTFSNAWMHWVRQAPGKGLEWVAQIKPKGNAYAAYYAPSVKGRFTISRDDSKNSIYLQMNSLKTEDTAVYYCHYVHYASASTVLPAFGVDAWGQGTTVTVSS VL: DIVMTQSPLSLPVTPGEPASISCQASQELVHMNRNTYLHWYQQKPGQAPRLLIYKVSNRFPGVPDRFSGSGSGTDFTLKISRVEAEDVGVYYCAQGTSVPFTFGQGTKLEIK ; wanted: its fold change of affinity
Reply: 0
